assay_procedure: Tanguay_ZF_120hpf_MORT: Oregon State University Tanguay Lab 120 Hour Post-fertilization zebrafish Assay for Mortality (AID 2284399)
Active and inactive are the calls of the source. The calls were made as follows: active = hit-call score of the fitted dose curve at least 0.9, where 1 is the maximum; inactive = score below 0.9.
One label from this list, please: 1 for active, -1 for inactive

*Q* Hey, what did the test say about O=C(O)C(F)(OC(F)(F)C(F)(F)C(F)(F)F)C(F)(F)F (stereo not given) ?
*A* -1

*Q* Hey, what did the test say about NC(=O)C(F)(F)C(F)(F)F ?
*A* -1

*Q* Hey, what did the test say about OCC(F)(F)OC(F)(F)C(F)(F)OC(F)(F)C(F)(F)OC(F)(F)CO ?
*A* 1

*Q* Hey, what did the test say about COC(=O)C(F)(F)C(F)(F)OC(F)(C(F)(F)F)C(F)(F)OC(F)=C(F)F (stereo not given) ?
*A* 1

*Q* Hey, what did the test say about O=C(O)C(F)(F)C(F)(F)C(=O)O ?
*A* -1

*Q* Hey, what did the test say about O=C(O)C(F)(F)OC(F)(F)C(F)(F)OC(F)(F)F ?
*A* -1

*Q* Hey, what did the test say about OCC(F)(F)OC(F)(F)C(F)(F)OC(F)(F)C(F)(F)OC(F)(F)F ?
*A* -1

*Q* Hey, what did the test say about OCC(F)(F)OC(F)(F)C(F)(F)OC(F)(F)CO ?
*A* -1

*Q* Hey, what did the test say about CC(O)C(F)(F)C(F)(F)F (stereo not given) ?
*A* -1

*Q* Hey, what did the test say about O=C(O)C(F)(F)OC(F)(F)C(F)(F)OC(F)(F)C(=O)O ?
*A* -1

Data provenance: PubChem BioAssay (EPA / NIEHS)
